The measured values listed here are drawn from patent US20150105316A1.

Quick reference: IP1 G-protein assay pEC50 of the listed items.
- System: T1, rat angiotensin 2 type 1 receptor (rat, UniProt P25095 1-359)
- T1 sequence (looked up): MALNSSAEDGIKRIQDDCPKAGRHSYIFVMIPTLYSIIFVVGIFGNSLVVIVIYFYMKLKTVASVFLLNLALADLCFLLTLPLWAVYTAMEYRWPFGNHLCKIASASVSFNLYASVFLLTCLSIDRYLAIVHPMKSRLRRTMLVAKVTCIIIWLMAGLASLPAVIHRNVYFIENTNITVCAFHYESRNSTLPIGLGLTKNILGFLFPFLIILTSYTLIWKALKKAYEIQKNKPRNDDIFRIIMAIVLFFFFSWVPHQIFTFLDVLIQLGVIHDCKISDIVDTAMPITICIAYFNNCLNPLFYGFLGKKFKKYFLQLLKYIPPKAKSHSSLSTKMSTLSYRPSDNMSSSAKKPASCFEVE
- Test Protocol: cell-based or functional assay
Where no end group is shown, it is not given here. [ ]: non-standard residue; d: D form. Tle = CC(C)(C)[C@H](N)C(=O)O; Ac6c = NC1(C(=O)O)CCCCC1; Ac5c = NC1(C(=O)O)CCCC1; Sar = CNCC(=O)O
Measure: IP1 G-protein assay pEC50

>>> reported_result("[Sar]RVY[Ac6c]HPY [SEQ ID NO: 55 (Sar-Arg-Val-Tyr-cyHex-His-Pro-Tyr)]")
"< 9.2"
>>> reported_result("[Sar]RVYPHPM [SEQ ID NO: 9 (Sar-Arg-Val-Tyr-Pro-His-Pro-Met)]")
"< 9.2"
>>> reported_result("[Sar]RVY[Ac6c]HPF [SEQ ID NO: 17 (Sar-Arg-Val-Tyr-cyHex-His-Pro-Phe)]")
"< 9.2"
>>> reported_result("[Sar]RVYPHPV [SEQ ID NO: 6 (Sar-Arg-Val-Tyr-Pro-His-Pro-Val)]")
"< 9.2"
>>> reported_result("[Sar]RVY[Ac6c]HPT [SEQ ID NO: 14 (Sar-Arg-Val-Tyr-cyHex-His-Pro-Thr)]")
"> 9.2"
>>> reported_result("[Sar]RVY[Ac5c]HPF [SEQ ID NO: 24 (Sar-Arg-Val-Tyr-cyPen-His-Pro-Phe)]")
"< 9.2"
>>> reported_result("[Sar]RVY[Ac5c]HPV [SEQ ID NO: 20 (Sar-Arg-Val-Tyr-cyPen-His-Pro-Val)]")
"< 9.2"
>>> reported_result("[Sar]RVY[Ac5c]HPM [SEQ ID NO: 23 (Sar-Arg-Val-Tyr-cyPen-His-Pro-Met)]")
"< 9.2"
>>> reported_result("[Sar]RVYPHP[dA] [SEQ ID NO: 60 (Sar-Arg-Val-Tyr-Pro-His-Pro-D-Ala)]")
"< 9.2"
>>> reported_result("[Sar]RVY[Ac6c]HP[Tle] [SEQ ID NO: 56 (Sar-Arg-Val-Tyr-cyHex-His-Pro-AA02)]")
"< 9.2"
>>> reported_result("[Sar]RVY[Ac6c]HPM [SEQ ID NO: 16 (Sar-Arg-Val-Tyr-cyHex-His-Pro-Met)]")
"< 9.2"
>>> reported_result("XRVYXHPA (not fully specified; X1 Sar; X5 NMeIle) [SEQ ID NO: 58 (Sar-Arg-Val-Tyr-NMeIle-His-Pro-Ala)]")
"< 9.2"
>>> reported_result("[Sar]RVY[Ac6c]HPQ [SEQ ID NO: 38 (Sar-Arg-Val-Tyr-cyHex-His-Pro-Gln)]")
"< 9.2"
>>> reported_result("[Sar]RVYPHPS [SEQ ID NO: 8 (Sar-Arg-Val-Tyr-Pro-His-Pro-Ser)]")
"> 9.2"
>>> reported_result("[Sar]RVY[Ac6c]HPI [SEQ ID NO: 11 (Sar-Arg-Val-Tyr-cyHex-His-Pro-Ile)]")
"> 9.2"
>>> reported_result("[Sar]RVYPHPA [SEQ ID NO: 1 (Sar-Arg-Val-Tyr-Pro-His-Pro-Ala)]")
"< 9.2"
